FYI, the data here is from patent US20070117743A1.

Hi there, I'd appreciate the recorded CC50 for every entry that follows.
test system: HeLa; assay: SRB colorimetric assay of cell growth and viability, HeLa; type: cell-based, human; settings: HELA; 48 hours exposure; read-out: LC50 HELA
Where a SMILES comes first, the peptide text is derived from it. Bridges are numbered along the chain shown (N, C = ends). [ ]: non-standard residue; d: D form. The star is where a group is joined. d(aIle) = CC[C@H](C)[C@@H](N)C(=O)O; d(aThr) = C[C@@H](O)[C@@H](N)C(=O)O; Hexanoyl(5-Me) = CC(C)CCCC(=O)*; Orn = NCCC[C@H](N)C(=O)O; Dhb = C/C=C(\N)C(=O)O
Note to self: number, then unit, no commentary.

Which measured CC50 value corresponds to C/C=C1\NC(=O)[C@H](Cc2ccccc2)NC(=O)[C@@H](C(C)C)NC(=O)[C@@H]([C@@H](C)CC)NC(=O)[C@H](NC(=O)[C@H](NC(=O)[C@H](CCCN)NC(=O)[C@H]2CCCN2C(=O)[C@H](NC(=O)[C@@H](NC(=O)CNC(=O)[C@H](NC(=O)CCCC(C)C)C(C)C)C(C)C)C(C)C)[C@@H](C)CC)[C@@H](C)OC(=O)[C@H](C(C)C)NC1=O [Compound 111, [Gly^12]-KF] ({Hexanoyl(5-Me)}-[dV]GV[dV][dP][Orn][d(aIle)][d(aThr)][d(aIle)][dV]F[Dhb]V; ester 8-C) ?
6.86 µM

// next item, CC50 requested
Need CC50, item C/C=C1\NC(=O)[C@H](Cc2ccccc2)NC(=O)[C@@H](C(C)C)NC(=O)[C@@H]([C@@H](C)CC)NC(=O)[C@H](NC(=O)[C@H](NC(=O)[C@H](CCCN)NC(=O)[C@H]2CCCCN2C(=O)[C@H](NC(=O)[C@@H](NC(=O)[C@@H](NC(=O)[C@H](NC(=O)CC[C@@H](C)CC)C(C)C)[C@@H](C)O)C(C)C)C(C)C)[C@@H](C)CC)[C@@H](C)OC(=O)[C@H](C(C)C)NC1=O [Compound 60, [D-Pip^9, (4S)-MeHex^14]-KF]
6.7 µM

====

system: SK-MEL-28; experiment: SRB colorimetric assay of cell growth and viability, SK-MEL-28; type: cell-based, human; details: 48 hours exposure
Where a SMILES comes first, the peptide text is derived from it. Bridges are numbered along the chain shown (N, C = ends). [ ]: non-standard residue; d: D form. The star is where a group is joined. d(aIle) = CC[C@H](C)[C@@H](N)C(=O)O; d(aThr) = C[C@@H](O)[C@@H](N)C(=O)O; Hexanoyl(5-Me) = CC(C)CCCC(=O)*; Orn = NCCC[C@H](N)C(=O)O; Dhb = C/C=C(\N)C(=O)O
Measured Attribute: TGI MEL-28 (Molar)
Numbers only, in Molar.

Can you share its TGI MEL-28? I mean this molecule: C/C=C1\NC(=O)[C@H](Cc2ccccc2)NC(=O)[C@@H](C(C)C)NC(=O)[C@@H]([C@@H](C)CC)NC(=O)[C@H](NC(=O)[C@H](NC(=O)[C@H](CCCN)NC(=O)[C@H]2CCCN2C(=O)[C@H](NC(=O)[C@@H]2CCCN2C(=O)[C@@H](NC(=O)[C@H](NC(=O)CCCC(C)C)C(C)C)[C@@H](C)O)C(C)C)[C@@H](C)CC)[C@@H](C)OC(=O)[C@H](C(C)C)NC1=O [Compound 47, [Pro^11]-KF] ({Hexanoyl(5-Me)}-[dV]TP[dV][dP][Orn][d(aIle)][d(aThr)][d(aIle)][dV]F[Dhb]V; ester 8-C)
6.78E−06
